test system: P. aeruginosa ATCC 9027; type: cell-based, Pseudomonas aeruginosa; conditions: ATCC 9027, 18 h
Where a SMILES comes first, the peptide text is derived from it. The star is where a group is joined. Myristoyl = CCCCCCCCCCCCCC(=O)*

- compound: "CCCCCCCCCCCCCC(=O)N[C@@H](CCCCN)C(N)=O [Peptide 1M, C14-K-NH2]"
  MIC: ">512 µg/mL"
- compound: "CCCCCCCCCCCCCC(=O)N[C@@H](CCCCN)C(=O)N[C@@H](CCCCN)C(N)=O [Peptide 2M, C14-KK-NH2]"
  MIC: "128 µg/mL"
- compound: "CCCCCCCCCCCCCCCCCC(=O)N[C@@H](CCCC[N+](C)(C)C)C(=O)N[C@@H](CCCC[N+](C)(C)C)C(N)=O [Peptide 2Sq, C18-K(Me3)^+K(Me3)^+-NH2]"
  MIC: ">512 µg/mL"
- compound: "CCCCCCCCCCCCCC(=O)N[C@@H](CCCCN)C(=O)N[C@@H](CCCCN)C(=O)N[C@@H](CCCCN)C(=O)N[C@@H](CCCCN)C(N)=O [Peptide 4M, C14-KKKK-NH2] (Myristoyl-KKKK-NH2)"
  MIC: "256 µg/mL"
- compound: "CCCCCCCCCCCCCCCCCC(=O)N[C@@H](CCCCN)C(N)=O [Peptide 1S, C18-K-NH2]"
  MIC: ">512 µg/mL"

* * *

test system: P. aeruginosa ATCC 9027; assay type: cell-based, Pseudomonas aeruginosa; conditions: ATCC 9027, 18 h
Where a SMILES comes first, the peptide text is derived from it. [ ]: non-standard residue; d: D form. The star is where a group is joined. Lys(Me3) = C[N+](C)(C)CCCC[C@H](N)C(=O)O; Stearoyl = CCCCCCCCCCCCCCCCCC(=O)*; Palmitoyl = CCCCCCCCCCCCCCCC(=O)*
log10 MIC listing for selected molecules.
quantity-name: log10 MIC (log10 of the value in µg/mL)

- molecule: "CCCCCCCCCCCCCCCCCC(=O)N[C@@H](CCCC[N+](C)(C)C)C(=O)N[C@@H](CCCC[N+](C)(C)C)C(=O)N[C@@H](CCCC[N+](C)(C)C)C(=O)N[C@@H](CCCC[N+](C)(C)C)C(N)=O [Peptide 4Sq, C18-K(Me3)^+K(Me3)^+K(Me3)^+K(Me3)^+-NH2] (Stearoyl-[Lys(Me3)][Lys(Me3)][Lys(Me3)][Lys(Me3)]-NH2)"
  recorded-result: 2.71
- molecule: "CCCCCCCCCCCCCCCCCC(=O)N[C@@H](CCCCN)C(=O)N[C@@H](CCCCN)C(=O)N[C@@H](CCCCN)C(=O)N[C@@H](CCCCN)C(N)=O [Peptide 4S, C18-KKKK-NH2] (Stearoyl-KKKK-NH2)"
  recorded-result: 0.90
- molecule: "CCCCCCCCCCCCCCCC(=O)N[C@@H](CCCC[N+](C)(C)C)C(=O)N[C@@H](CCCC[N+](C)(C)C)C(N)=O [Peptide 2Pq, C16-K(Me3)^+K(Me3)^+-NH2]"
  recorded-result: 2.71
- molecule: "CCCCCCCCCCCCCCCC(=O)N[C@@H](CCCCN)C(=O)N[C@@H](CCCCN)C(N)=O [Peptide 2P, C16-KK-NH2]"
  recorded-result: 1.20
- molecule: "CCCCCCCCCCCCCC(=O)N[C@@H](CCCCN)C(=O)N[C@@H](CCCCN)C(=O)N[C@@H](CCCCN)C(N)=O [Peptide 3M, C14-KKK-NH2]"
  recorded-result: 2.11
- molecule: "CCCCCCCCCCCCCCCCCC(=O)N[C@@H](CCCCN)C(=O)N[C@@H](CCCCN)C(N)=O [Peptide 2S, C18-KK-NH2]"
  recorded-result: 2.11
- molecule: "CCCCCCCCCCCCCCCCCC(=O)N[C@@H](CCCCN)C(=O)N[C@@H](CCCCN)C(=O)N[C@@H](CCCCN)C(N)=O [Peptide 3S, C18-KKK-NH2]"
  recorded-result: 1.20
- molecule: "CCCCCCCCCCCCCC(=O)N[C@@H](CCCC[N+](C)(C)C)C(N)=O [Peptide 1Mq, C14-K(Me3)^+-NH2]"
  recorded-result: 2.11
- molecule: "CCCCCCCCCCCCCCCCCC(=O)N[C@@H](CCCC[N+](C)(C)C)C(=O)N[C@@H](CCCC[N+](C)(C)C)C(=O)N[C@@H](CCCC[N+](C)(C)C)C(N)=O [Peptide 3Sq, C18-K(Me3)^+K(Me3)^+K(Me3)^+-NH2]"
  recorded-result: 2.71
- molecule: "CCCCCCCCCCCCCCCC(=O)N[C@@H](CCCCN)C(=O)N[C@@H](CCCCN)C(=O)N[C@@H](CCCCN)C(N)=O [Peptide 3P, C16-KKK-NH2]"
  recorded-result: 1.51
- molecule: "CCCCCCCCCCCCCCCC(=O)N[C@@H](CCCCN)C(=O)N[C@@H](CCCCN)C(=O)N[C@@H](CCCCN)C(=O)N[C@@H](CCCCN)C(N)=O [Peptide 4P, C16-KKKK-NH2] (Palmitoyl-KKKK-NH2)"
  recorded-result: 1.51
